target: Bos d 5 (bovine beta-lactoglobulin) (Bos taurus, UniProt P02754)
Sequence (P02754 17-178): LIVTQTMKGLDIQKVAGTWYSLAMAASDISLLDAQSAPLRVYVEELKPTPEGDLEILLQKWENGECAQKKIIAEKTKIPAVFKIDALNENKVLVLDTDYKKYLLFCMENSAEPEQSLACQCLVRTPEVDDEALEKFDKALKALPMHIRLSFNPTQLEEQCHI
recorded_metric: Kd (µM)
Write it as a number; the unit µM goes unstated.

**Q:** Retrieve Kd on Bos d 5 (bovine beta-lactoglobulin) (Bos taurus, UniProt P02754); query CC1=C(/C=C/C(C)=C/C=C/C(C)=C/C(=O)O)C(C)(C)CCC1 [RA, all trans-retinoic acid]
**A:** 6.1

Values were extracted from paper PMC5785490.
